System: HIV-1NL4-3
Test: P4-MAGI assay
Assay type: cell-based
Conditions: Human immunodeficiency virus 1, 24 h, P4 cells, 24 hour incubation, β-galactosidase expression; read-out: P4-MAGI IC50
RESULT TYPE: log10 IC50 (log10 of the value in µM)
Please note: log10 values; quantity IC50; unit µM.

Enquiry: Param readout = log10 IC50; param system = HIV-1NL4-3; param query = C=C(C)[C@@H]1CC[C@]2(C(=O)NCCc3cccc(C(=O)NCc4ccc(-c5nn[nH]n5)cn4)c3)CC[C@]3(C)C(CCC4[C@@]5(C)CC[C@H](O)C(C)(C)C5CC[C@]43C)C12 (some centres unmarked) ; response: value
Return: -1.97

Enquiry: Please give the result for C=C(C)[C@@H]1CC[C@]2(C(=O)NCc3cccc(C(=O)Nc4ccc5cc(C(=O)O)ccc5c4)c3)CC[C@]3(C)C(CCC4[C@@]5(C)CC[C@H](O)C(C)(C)C5CC[C@]43C)C12 (some centres unmarked) too.
Return: -0.97

Enquiry: Please give the result for C=C(C)[C@@H]1CC[C@]2(C(=O)NCc3cccc(C(=O)NCc4ccc(C(=O)OC)s4)c3)CC[C@]3(C)C(CCC4[C@@]5(C)CC[C@H](O)C(C)(C)C5CC[C@]43C)C12 (some centres unmarked) too.
Return: -1.42

Enquiry: Please give the result for C=C(C)[C@@H]1CC[C@]2(C(=O)NCCc3cccc(C(=O)NCC(=O)OCC)c3)CC[C@]3(C)C(CCC4[C@@]5(C)CC[C@H](O)C(C)(C)C5CC[C@]43C)C12 (some centres unmarked) too.
Return: -1.39

Enquiry: Please give the result for C=C(C)[C@@H]1CC[C@]2(C(=O)NCc3cccc(N4CCN(Cc5cccc(C(=O)O)c5)CC4)c3)CC[C@]3(C)C(CCC4[C@@]5(C)CC[C@H](O)C(C)(C)C5CC[C@]43C)C12 (some centres unmarked) too.
Return: -0.34

====

System: HIV-1NL4-3
Experiment: P4-MAGI assay
Type: cell-based
Settings: Human immunodeficiency virus 1, 24 h, P4 cells, 24 hour incubation, β-galactosidase expression; read-out: P4-MAGI IC50
pIC50: −log10 of the molar value.
Param threshold (7) applies to pIC50; output yes when value >= threshold, no when value < threshold.

Enquiry: API: above_or_equal(metric=pIC50, cutoff=7) for item C=C(C)[C@@H]1CC[C@]2(C(=O)NCCc3cccc(C(=O)NCc4ccc(C(=O)N[C@H](Cc5cc6ccccc6[nH]5)C(=O)OC)cc4)c3)CC[C@]3(C)C(CCC4[C@@]5(C)CC[C@H](O)C(C)(C)C5CC[C@]43C)C12 (stereo partly drawn)
Return: yes

Enquiry: Please give the result for C=C(C)[C@@H]1CC[C@]2(C(=O)NCc3cccc(C(=O)NCc4ccc(OCCCN5CCOCC5)c(C(=O)O)c4)c3)CC[C@]3(C)C(CCC4[C@@]5(C)CC[C@H](O)C(C)(C)C5CC[C@]43C)C12 (stereo partly drawn) too.
Return: yes

Enquiry: Please give the result for C=C(C)[C@@H]1CC[C@]2(C(=O)N[C@@H](Cc3ccc(OCCN4CCOC4=O)cc3)C(=O)O)CC[C@]3(C)C(CCC4[C@@]5(C)CC[C@H](O)C(C)(C)C5CC[C@]43C)C12 (stereo partly drawn) too.
Return: no

Enquiry: Please give the result for C=C(C)[C@@H]1CC[C@]2(C(=O)NCCc3cccc(C(=O)NCc4ccc(OCCCn5cnc(C(=O)O)c5)c(C(=O)O)c4)c3)CC[C@]3(C)C(CCC4[C@@]5(C)CC[C@H](O)C(C)(C)C5CC[C@]43C)C12 (stereo partly drawn) too.
Return: no

Enquiry: Please give the result for C=C(C)[C@@H]1CC[C@]2(C(=O)NCCc3cccc(C(=O)NCc4ccc(C(=O)N[C@H](Cc5cc6ccccc6[nH]5)C(=O)O)cc4)c3)CC[C@]3(C)C(CCC4[C@@]5(C)CC[C@H](O)C(C)(C)C5CC[C@]43C)C12 (stereo partly drawn) too.
Return: yes

Enquiry: Please give the result for C=C(C)[C@@H]1CC[C@]2(C(=O)NCCc3cccc(C(=O)NC(C)(C)c4ccccn4)c3)CC[C@]3(C)C(CCC4[C@@]5(C)CC[C@H](O)C(C)(C)C5CC[C@]43C)C12 (stereo partly drawn) too.
Return: no

Reference source for all entries: patent US20090275583A1
